# assayTarget: T1, CW peptides (KRRHPKKC) (C-terminal cysteine added for coupling to thiopyridone-Sepharose 6B beads (pull-down))
# T1 construct: CW motif of Shh (mouse residues 33-39, human 32-38) plus an added C-terminal Cys; On beads in the pull-downs, free in solution in ITC; also called Cardin-Weintraub peptide; synthetic CW peptides
# T1 peptide: KRRHPKKC
# protocolText: ITC, 500 µM CW peptide injected into 50 µM GST-SURF4 (49-60), one set of sites model
Where no end group is shown, it is not given here.
resultType: pKd
One number for each entry, as −log10 of the molar value.

pKd reading for {GST}-SEQRDYIDTTWN (other, also: GST tag linker not given here, Purified from E. coli; also called N-terminal GST-tagged SURF4^49-60; GST-tagged SURF4^49-60; not shown: glutathione S-transferase (GST) tag, N-terminal) [GST-SURF4^49-60] : 5.63

FYI, the data here is from patent US20250243243A1.
